Experiment: chemical genetic growth profiling, strain panel (AID 1159580);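 note: tested at 20 µM; growth read once vehicle control cultures reached saturation at 30 °C; 1 = growth at the plate median or of vehicle wells; lower values mean less growth of the strain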
Conditions: S. cerevisiae deletion strains, growth OD, locus YJL164C, strain tpk1
Hit rate of the full screen: of about 5,500 compounds, about 2,000 (36%) were called active. Inconclusive results (about 18%) are left out. Cut-off read from the data, not from the text of the source: active = normalized growth mostly below about 0.91 (no sharp cut-off); inconclusive = no clear call, values can overlap the other calls; inactive = mostly above about 0.92. This is one part of the list.
Outcomes: active, inactive

| compound | class |
| --- | --- |
| COc1ccc2cc3[n+](cc2c1OC)CCc1cc2c(cc1-3)OCO2 | inactive |
| Cn1nnnc1SCC1=C(C(=O)O)N2C(=O)C(NC(=O)C(O)c3ccccc3)C2SC1 (stereo unspecified) | inactive |
| COc1ccc(C(=O)/C=C/c2ccccc2)cc1 | active |
| CCC(CCC(C)[C@H]1CCC2C3CC=C4C[C@@H](O)CC[C@]4(C)C3CC[C@@]21C)C(C)C (stereo partly specified) | inactive |
| COc1cc2cc[n+]3cc4c(OC)c(OC)ccc4cc3c2cc1OC | inactive |
| COc1c2c(cc3c1OCO3)CC[N+](C)=C2 | inactive |

====

In this section we review reported normalized growth values for a set of compounds.
Experiment: chemical genetic growth profiling, strain panel (AID 1159580)
Conditions: S. cerevisiae deletion strains, growth OD, locus YGL248W, strain PDE1, active compounds read low
In all, about 5,500 compounds went through this assay and about 2,000 (36%) were called active. Another 18% or so got no clear call; they are omitted. This is one part of the list.

| compound | normalized growth |
| --- | --- |
| COc1ccc(-c2cc(=O)c3ccccc3o2)cc1OC | 0.97 |
| CC[N+]1(C)CCCC(OC(=O)C(O)(c2ccccc2)c2ccccc2)C1 (stereo unspecified) | 1 |
| COc1cccc2c1cc([N+](=O)[O-])c1c(C(=O)O)cc3c(c12)OCO3 | 1.01 |
| COCCOC(=O)C1=C(C)NC(C)=C(C(=O)OC(C)C)C1c1cccc([N+](=O)[O-])c1 (stereo unspecified) | 1 |
| CC1=CCc2c(cc3oc(C)cc(=O)c3c2O)OC1 | 0.901 |
| COc1c(O)cccc1O | 1.04 |
| COc1ccc(-c2cc(=O)c3ccccc3o2)cc1 | 0.636 |
| Cc1cc(=O)c2c(O)c3c(cc2o1)OC(C)(C)CC3 | 1 |
| CC1(C)O[C@@H]2CC3C4CCC5=CC(=O)C=C[C@]5(C)[C@@]4(F)[C@@H](O)C[C@]3(C)[C@]2(C(=O)CO)O1 (stereo partly specified) | 1.01 |
| Nc1ccc(C(=O)Oc2ccccc2)c(O)c1 | 0.864 |
| C[C@@H]1CC[C@@]2(OC1)OC1C(O)C3C4CC[C@H]5C[C@H](O[C@@H]6O[C@H](CO)[C@H](O[C@@H]7O[C@H](CO)[C@@H](O)[C@H](O[C@@H]8OC[C@@H](O)[C@H](O)[C@H]8O)[C@H]7O[C@@H]7O[C@H](CO)[C@H](O)[C@H](O[C@@H]8O[C@H](CO)[C@@H](O)[C@H](O)[C@H]8O)[C@H]7O)[C@H](O)[C@H]6O)[C@H](O)C[C@]5(C)C4CC[C@]3(C)C1[C@@H]2C (stereo partly specified) | 0.0484 |
| CC(=O)Nc1cccc(O)c1 | 1.02 |
| C[N+]1(CCCCC[N+]2(C)CCCC2)CCCC1 | 1.02 |
| CC1=C2C(=CO[C@H](C)[C@H]2C)C(=O)C(C(=O)O)=C1O | 0.991 |
| O=c1c2ccccc2[se]n1-c1ccccc1 | 0.0477 |
| COc1c(O)cc2c(-c3ccccc3)cc(=O)oc2c1OC | 1.02 |
| O=C1c2c(O)ccc(O)c2C(=O)c2c(NCCNCCO)ccc(NCCNCCO)c21 | 1.02 |
| Cc1cc(=O)c2c(O)c3c(cc2o1)OCC(C)CC3 (stereo unspecified) | 0.881 |
| O=C1CCc2cc(OCCCCc3nnnn3C3CCCCC3)ccc2N1 | 1 |
| COc1ccc(-c2cc(=O)c3c(OC)cccc3o2)cc1 | 1.05 |
| CC(=O)N(O)CCCCCNC(=O)CCC(=O)N(O)CCCCCNC(=O)CCC(=O)N(O)CCCCCN | 0.987 |
| CC(=O)O[C@H]1C[C@H](O[C@H]2[C@@H](O)C[C@H](O[C@H]3[C@@H](O)C[C@H](O[C@H]4CC[C@@]5(C)C(CCC6C5C[C@@H](O)[C@]5(C)[C@@H](C7=CC(=O)OC7)CC[C@]65O)C4)O[C@@H]3C)O[C@@H]2C)O[C@H](C)[C@H]1O[C@@H]1O[C@H](CO)[C@@H](O)[C@H](O)[C@H]1O (stereo partly specified) | 1.01 |
| COc1ccc(C(=O)/C=C/c2ccccc2)cc1 | 0.824 |
| CN(N=O)C(=O)N[C@@H]1[C@@H](O)[C@H](O)[C@@H](CO)O[C@@H]1O | 0.996 |
| Nc1ccc(C(=O)O)c(O)c1 | 0.999 |
| COC(=O)C1=C(C)NC(C)=C(C(=O)OCCN(C)Cc2ccccc2)C1c1cccc([N+](=O)[O-])c1 (stereo unspecified) | 0.991 |

====

Experiment: chemical genetic growth profiling, strain panel (AID 1159580);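 note: tested at 20 µM; growth read once vehicle control cultures reached saturation at 30 °C; 1 = growth at the plate median or of vehicle wells; lower values mean less growth of the strain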
Conditions: S. cerevisiae deletion strains, growth OD, locus YHR013C, strain ard1
The whole screen tested about 5,500 compounds, of which about 2,000 (36%) were called active. About 18% were inconclusive and are not listed. Rule as the data show it: active = normalized growth mostly below about 0.91 (no sharp cut-off); inconclusive = no clear call, values can overlap the other calls; inactive = mostly above about 0.92. The list shows a part of the results.
Outcomes: active, inactive

| compound | class |
| --- | --- |
| ClC(Cl)=C(c1ccc(Cl)cc1)c1ccc(Cl)cc1 | inactive |
| CN(N=O)C(=O)N[C@@H]1[C@@H](O)[C@H](O)[C@@H](CO)O[C@@H]1O | inactive |
| C[N+]1(CCCCC[N+]2(C)CCCC2)CCCC1 | inactive |
| [N-]=[N+]=CC(=O)OCC(N)C(=O)O (stereo not given) | inactive |
| O=C1c2c(O)ccc(O)c2C(=O)c2c(NCCNCCO)ccc(NCCNCCO)c21 | inactive |
| COc1cc2c3cc1Oc1cc(ccc1O)C[C@@H]1c4c(cc(OC)c(O)c4Oc4ccc(cc4)C[C@@H]3N(C)CC2)CC[N+]1(C)C | inactive |
| CC(=O)N(O)CCCCCNC(=O)CCC(=O)N(O)CCCCCNC(=O)CCC(=O)N(O)CCCCCN | inactive |
| C=CCCCCCCCCCCCC(O)CC(O)CO (stereo not given) | inactive |
| CC(=O)O.CC(=O)O.[Cd] | active |
| CC1(C)O[C@@H]2CC3C4C[C@H](F)C5=CC(=O)C=C[C@]5(C)[C@@]4(F)[C@@H](O)C[C@]3(C)[C@]2(C(=O)CO)O1 (stereo not given in full) | inactive |

====

Assay: chemical genetic growth profiling, strain panel (AID 1159580);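 note: tested at 20 µM; growth read once vehicle control cultures reached saturation at 30 °C; 1 = growth at the plate median or of vehicle wells; lower values mean less growth of the strain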
Settings: S. cerevisiae deletion strains, growth OD, locus YER016W, strain bim1
Hit rate of the full screen: of about 5,500 compounds, about 2,000 (36%) were called active. Inconclusive results (about 18%) are left out. Cut-off read from the data, not from the text of the source: active = normalized growth mostly below about 0.91 (no sharp cut-off); inconclusive = no clear call, values can overlap the other calls; inactive = mostly above about 0.92. The list shows a part of the results.
Outcomes: 1 for active, -1 for inactive

| compound | class |
| --- | --- |
| CN1CCOC(c2ccccc2)c2ccccc2C1 (stereo unspecified) | -1 |
| CCCCCCCCCCCCCCCC[n+]1ccccc1 | 1 |
| CC(=O)Oc1c(-c2ccccc2)oc2c(CC=C(C)C)c3c(c(OC(C)=O)c2c1=O)C=CC(C)(C)O3 | 1 |
| COC(=O)C1=C(C)NC(C)=C(C(=O)OCCN(C)Cc2ccccc2)C1c1cccc([N+](=O)[O-])c1 (stereo unspecified) | -1 |
| CC(C)=CCc1c2c(c(O)c3c(=O)c(O)c(-c4ccccc4)oc13)C=CC(C)(C)O2 | -1 |
| O=c1[nH]c2cc(Cl)c(Cl)cc2[nH]c1=O | -1 |
| CCCCOc1cc(CC2CNC(=O)N2)ccc1OC (stereo unspecified) | -1 |
| O=C(O)c1nc2cc(Cl)c(Cl)cc2[nH]c1=O | -1 |
| N[C@H](CO)Cc1ccccc1 | -1 |
| COc1ccc(-c2cc(=O)c3c(O)c(OC)c(OC)c(OC)c3o2)cc1 | -1 |
| COc1ccc(-c2cc(=O)c3ccccc3o2)cc1 | 1 |

====

Assay: chemical genetic growth profiling, strain panel (AID 1159580);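 note: tested at 20 µM; growth read once vehicle control cultures reached saturation at 30 °C; 1 = growth at the plate median or of vehicle wells; lower values mean less growth of the strain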
Conditions: S. cerevisiae deletion strains, growth OD, locus YBR279W, strain paf1, active compounds read low
Screen size: about 5,500 compounds; about 2,000 (36%) were called active. Another 18% or so got no clear call; they are omitted. The list shows a part of the results.

| molecule | normalized growth |
| --- | --- |
| CC[C@]12C=CCN3CC[C@@]4(c5ccc(OC)cc5N(C)C4[C@@](O)(C(=O)OC)[C@@H]1OC(C)=O)[C@@H]32 (stereo partly specified) | 1 |
| O=C(O)/C=C(\CC(=O)O)C(=O)O | 1.01 |
| NC(=O)CC[C@@H](N)C(=O)O | 1.02 |
| NCCc1ccc(O)c(O)c1 | 1 |
| O=c1cc(-c2ccc(O)cc2)oc2ccc(O)cc12 | 0.978 |
| NCCc1ccc(O)cc1 | 0.983 |

FYI, the data here is from PubChem BioAssay AID1159580.
